Every entry's value here was drawn from PubChem BioAssay AID1963976.

Test system: 435261-313-R-J1-PDC tumor spheroid viability;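 note: spheroids exposed to compounds for 7 days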
Assay: Anticancer human tumor 435261-313-R-J1-PDC patient-derived colon adenocarcinoma cell line growth inhibition [PI3K]
Details: second compound 1 µM; first compound 0.01 µM; active compounds read low; spheroids with HUVEC and MSC
Let's look at some molecules and their measured viability, T/C.
// units = %; emit number, no label

Could you share what viability, T/C was measured for Cn1ncnc1[C@H]1c2n[nH]c(=O)c3cc(F)cc(c23)N[C@@H]1c1ccc(F)cc1 + COc1c(OCCCN2CCOCC2)ccc2c3n(c(=NC(=O)c4cnc(N)nc4)nc12)CCN3 , tested on 435261-313-R-J1-PDC tumor spheroid viability?;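 note: spheroids exposed to compounds for 7 days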
3.5
